All values here come from patent US20130040952A1.

Provide the recorded CC50 at 48 h for the entries that follow.
# Experiment summary: Cytotoxicity assay in MDCK cells (MTS)
# Format: cell-based
# Experimental conditions: dog; concentration needed to inhibit 50% growth of MDCK cells in 48 h
Where a SMILES comes first, the peptide text is derived from it. Bridges are numbered along the chain shown (N, C = ends).

Q: # get_value(readout='CC50 at 48 h', item= CC(C)[C@@H]1NC(=O)[C@H](CO)NC(=O)[C@H](Cc2ccccc2)NC(=O)[C@H]([C@@H](C)O)NC(=O)[C@@H](N)CSSC[C@@H](C(=O)O)NC(=O)[C@H](CC(N)=O)NC(=O)[C@H](CCCNC(=N)N)NC(=O)[C@H](CCC(N)=O)NC1=O [peptide 2] )
A: > 2000 µM

Q: # get_value(readout='CC50 at 48 h', item= CCCCCC(=O)NCC(=O)Nc1cc(Cl)ccc1Cl )
A: > 100 µM

Q: # get_value(readout='CC50 at 48 h', item= CCCCCCCCC(=O)NCC(=O)Nc1cccc(F)c1 )
A: > 100 µM

Q: # get_value(readout='CC50 at 48 h', item= Cc1cccc(CSc2nc(=O)n(CCCO)c3c2CCC3)c1 )
A: > 100 µM

Q: # get_value(readout='CC50 at 48 h', item= CC(C)C[C@@H]1NC(=O)[C@H](CC(N)=O)NC(=O)[C@H](CCCNC(=N)N)NC(=O)[C@H](CCC(N)=O)NC(=O)[C@H](C(C)C)NC(=O)[C@H](CO)NC(=O)[C@H](Cc2ccccc2)NC(=O)[C@H]([C@@H](C)O)NC(=O)[C@@H]2CCCN2C(=O)[C@H](CCC(N)=O)NC(=O)[C@@H](N)CSSC[C@@H](C(=O)O)NC1=O [peptide 3] (H-CQPTFSVQRNLC-OH; disulfide 1-12) )
A: > 2000 µM

Q: # get_value(readout='CC50 at 48 h', item= O=C(NCCCN1CCOCC1)c1csc(Nc2ccc(Cl)c(Cl)c2)n1 )
A: 35.6 µM
